Target: T1, corticotropin releasing factor 2 receptor
T1 sequence (Q13324 whole entry, species assumed, looked up): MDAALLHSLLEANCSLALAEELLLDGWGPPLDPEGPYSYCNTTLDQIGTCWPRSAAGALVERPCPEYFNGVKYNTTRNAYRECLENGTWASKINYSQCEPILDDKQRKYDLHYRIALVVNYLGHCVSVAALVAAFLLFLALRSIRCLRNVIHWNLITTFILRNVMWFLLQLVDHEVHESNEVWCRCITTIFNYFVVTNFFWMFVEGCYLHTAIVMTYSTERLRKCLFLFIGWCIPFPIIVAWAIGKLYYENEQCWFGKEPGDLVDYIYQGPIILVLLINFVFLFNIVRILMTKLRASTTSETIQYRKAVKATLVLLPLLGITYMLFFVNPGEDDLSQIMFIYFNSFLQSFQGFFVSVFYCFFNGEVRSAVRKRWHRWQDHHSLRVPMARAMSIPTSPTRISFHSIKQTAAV
Assay: cell-based or functional assay
QUANTITY NAME: CRF2R EC50

> print(dat)
                                     binder  test.value
1  ZGPPISIDLPTKLLRKMIEIEKQEKEKQQAANNRLLLDTI (C-terminal amide) [SEQ ID NO 45]    > 100 nM
2  ZGPPISIDLPTNLLRKMIEIEKQEKEKQQAANNRLLLDTI (C-terminal amide) [SEQ ID NO 59]    > 100 nM
3  ZGPPISIDLPTRLLRKMIEIEKQEKEKQQAANNRLLLDTI (C-terminal amide) [SEQ ID NO 60]    > 100 nM

Measured values drawn from patent US20030148958A1 for this set.
